meta.source: the supplement of paper PMC6555819

Listing of recorded PBM binding z-score by entry.
Tested on: VDR homodimer (NR concentration 270 nM)
assay_overview: PBM binding z-score (relative to random genomic background probes); higher = stronger binding; sequences stand for … in GC…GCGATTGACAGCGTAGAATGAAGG

Take a look at these entries with their results.
CGTCAAAGTTCAACTAAGGTAACATAAAGCACGC	3.89
TGTGCTAGGTCAGTTGGTCAGCTAACGAGCTGCC	-0.504
TCTTGTAGATCAATAGAGGTTTAGAAAGTGCGCT	0.0472
GTACCAAGGAGAATAGGTCGTTGATGAGTAGGCG	-0.123

Quick check: PBM binding z-score of CGTCCTAGGTCAGAGAGGTCAGTGAATGCCGAGT ?
3.9

May I ask what PBM binding z-score has been recorded for AATACAGGGTCATCGTAGGCCAGAGTTCGCACAG ?
5.37

Return reported PBM binding z-score; argument: TCTTGTAGATCAAGCGGGTTAAGAAAGCCTGAGT
-0.0254

PBM binding z-score for TCGAGTAGGTTAGTCGGGGCATGCAGCCAACATA ?
-0.157

Need PBM binding z-score, item CCTATTAGTTGACGATAAGGGCAACCGAAGCTCG
0.415

Fill in: PBM binding z-score of ATCTATAGGTAACAAGTTCAGTGAAAGAGAGGAC is ___
2.47
